Below: a set of entries, each annotated with reported logP.
experiment.notes: physchem
experimental.conditions: octanol/buffer
Output spec: single numeric token, no unit.

Examples with their reported logP follow.
Cc1cc(Cl)c(OCCOc2ccc(N3C(=O)CNC[C@@H]3C(=O)N(Cc3cccc(Cl)c3Cl)C3CC3)cc2)c(Cl)c1 : 6.42
CNC(=O)CCc1ccc(Cl)c(CN(C(=O)[C@H]2CNCC(=O)N2c2ccc(OCCOc3c(Cl)cc(C)cc3Cl)nc2)C2CC2)c1 : 4.52
COCCc1ccc(Cl)c(CN(C(=O)[C@H]2CNCC(=O)N2c2ccc(OCCCOCc3ccccc3OC)cc2)C2CC2)c1 : 5.27
COc1ccccc1COCCCOc1ncc(N2C(=O)CNC[C@@H]2C(=O)N(Cc2cc(CNCCF)ccc2Cl)C2CC2)cn1 : 2.98
Cc1cc(Cl)c(OCCOc2ccc(N3C(=O)CNC[C@@H]3C(=O)N(Cc3cc(CCNC(=O)CC(F)(F)F)ccc3Cl)C3CC3)cn2)c(Cl)c1 : 5.28
COc1ccccc1COCCCOc1ccc(N2C(=O)CNC[C@@H]2C(=O)N(Cc2cc(CNCCF)ccc2Cl)C2CC2)cc1 : 4.99
COc1ccccc1COCCCOc1ncc(N2C(=O)CNC[C@@H]2C(=O)N(Cc2cc(CCNC(=O)CC(F)(F)F)ccc2Cl)C2CC2)cn1 : 3.32
O=C(NCc1ccccc1Cl)[C@H]1CNCC(=O)N1c1ccc(OCCCOCc2ccccc2)cc1 : 4.26

Exercise: Field request: logP | item: O=C(NCc1ccccc1Cl)[C@H]1CNCC(=O)N1c1ccc(CCCOc2c(F)ccc(F)c2F)cc1
Key: 4.88

Exercise: Now give it for CN(Cc1ccccc1Cl)C(=O)[C@H]1CNCC(=O)N1c1ccc(OCCCOCc2ccccc2)cc1 too.
Key: 4.45

Exercise: Now give it for Cc1cc(Cl)c(OCCOc2ccc(N3C(=O)CNC[C@@H]3C(=O)N(Cc3cc(CC(=O)NC4CC4)ccc3Cl)C3CC3)cc2)c(Cl)c1 too.
Key: 5.91

###

experiment.notes: physchem
experimental.conditions: octanol/buffer
Each record gets a class by logP: zone 1: < 4; zone 2: ≥ 4 and < 5; zone 3: ≥ 5

Example cases with answers are listed next.
O=C(OCc1ccc(N2C(=O)CNC[C@@H]2C(=O)N(Cc2cccc(Cl)c2Cl)C2CC2)cc1)c1ccccc1 : zone 3
COc1ccccc1COCCCOc1ccc(N2C(=O)CNC[C@@H]2C(=O)N(Cc2cc(CCNC(C)=O)ccc2Cl)C2CC2)cc1 : zone 2
CC(C)(C)OCC(=O)NCCc1ccc(Cl)c(CN(C(=O)[C@H]2CNCC(=O)N2c2ccc(COC(=O)c3ccccc3)cc2)C2CC2)c1 : zone 3
CCNCCc1ccc(Cl)c(CN(C(=O)[C@H]2CNCC(=O)N2c2cnc(OCCCOCc3ccccc3OC)nc2)C2CC2)c1 : zone 1
CN(Cc1ccccc1)C(=O)[C@H]1CNCC(=O)N1c1ccc(CCCOc2cccc(Cl)c2)cc1 : zone 2

Exercise: Could you place COCCCc1cc(CN(C(=O)[C@H]2CNCC(=O)N2c2ccc(CCCOc3c(F)ccc(F)c3F)cc2)C2CC2)c(Cl)c[n+]1[O-] in its proper category? Many thanks.
Key: zone 3

Exercise: Now give it for O=C([C@H]1CNCC(=O)N1c1ccc(CCCOc2cccc(Cl)c2)cc1)N(Cc1cc(CCNCC(F)F)ccc1Cl)C1CC1 too.
Key: zone 3

Exercise: Now give it for CNC(=O)OCCc1ccc(Cl)c(CN(C(=O)[C@H]2CNCC(=O)N2c2cnc(OCCCOCc3ccccc3OC)nc2)C2CC2)c1 too.
Key: zone 1

Exercise: Now give it for CCNCCc1ccc(Cl)c(CN(C(=O)[C@H]2CNCC(=O)N2c2ccc(CCCOc3cccc(Cl)c3)cc2)C2CC2)c1 too.
Key: zone 3

Exercise: Now give it for O=C(Cc1ccc(Cl)c(CN(C(=O)[C@H]2CNCC(=O)N2c2ccc(OCCCOCc3ccccc3)cc2)C2CC2)c1)NC1CC1 too.
Key: zone 3

Exercise: Now give it for COc1c(CN(C(=O)[C@H]2CNCC(=O)N2c2ccc(OCCOc3c(Cl)cc(C)cc3Cl)cc2)C2CC2)ccnc1C too.
Key: zone 2

Exercise: Now give it for CN(Cc1ccccc1)C(=O)[C@H]1CNCC(=O)N1c1ccc(COC(=O)c2ccccc2)cc1 too.
Key: zone 1
